Recorded values, source the supplement of paper PMC9112550.

Test system: Escherichia coli TOP10;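 also: peptides expressed intracellularly from a pBAD plasmid library in pooled LB shake-flask culture, induced with 0.3% L-arabinose, DNA abundance read by NGS, three biological replicates, DESeq2 with apeglm shrinkage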
PROCEDURE DETAILS: shrunken log2 fold change of peptide-encoding DNA abundance (4.5 h post-induction vs induction); higher = less antimicrobial activity (less host growth inhibition)
TEST SETTINGS: time post-induction: 4.5 h; library: site-saturation at positions 5, 18, 19, 20
QUANTITY: shrunken log2 fold change

INSERT INTO results (primary_sequence, readout_number) VALUES
  ('RRIRVRPPRLPRPRPRPTTLPRP', -0.111),
  ('RRIRVRPPRLPRPRPRPNLHPRP', -0.239),
  ('RRIRHRPPRLPRPRPRPCYMPRP', -0.494),
  ('RRIRNRPPRLPRPRPRPVAMPRP', -0.198),
  ('RRIRNRPPRLPRPRPRPTEIPRP', -0.319),
  ('RRIRVRPPRLPRPRPRPPTCPRP', 0.141),
  ('RRIRDRPPRLPRPRPRPGANPRP', 0.19),
  ('RRIRLRPPRLPRPRPRPYTIPRP', -0.048),
  ('RRIRPRPPRLPRPRPRPRVMPRP', 0.327),
  ('RRIRLRPPRLPRPRPRPYEAPRP', -1.12),
  ('RRIRHRPPRLPRPRPRPFFCPRP', -0.16),
  ('RRIRARPPRLPRPRPRPEDHPRP', 0.392),
  ('RRIRARPPRLPRPRPRPLWHPRP', 0.108),
  ('RRIRGRPPRLPRPRPRPCFYPRP', 0.156),
  ('RRIRMRPPRLPRPRPRPRDEPRP', 1.43),
  ('RRIRQRPPRLPRPRPRPVLMPRP', 0.111),
  ('RRIRLRPPRLPRPRPRPCLQPRP', -0.207),
  ('RRIRPRPPRLPRPRPRPARIPRP', 0.14),
  ('RRIRTRPPRLPRPRPRPGCIPRP', -0.22),
  ('RRIRMRPPRLPRPRPRPFNEPRP', -0.488),
  ('RRIRFRPPRLPRPRPRPNDNPRP', -0.616),
  ('RRIRLRPPRLPRPRPRPESCPRP', 0.0209),
  ('RRIRYRPPRLPRPRPRPVKVPRP', 0.0182),
  ('RRIRFRPPRLPRPRPRPTNGPRP', -0.137),
  ('RRIRMRPPRLPRPRPRPLWMPRP', 0.0202),
  ('RRIRRRPPRLPRPRPRPPRGPRP', 0.911),
  ('RRIRGRPPRLPRPRPRPIWPPRP', 0.23),
  ('RRIRQRPPRLPRPRPRPKWIPRP', -0.0524),
  ('RRIRARPPRLPRPRPRPDIVPRP', 0.244),
  ('RRIRNRPPRLPRPRPRPQNMPRP', -0.233),
  ('RRIRSRPPRLPRPRPRPAYQPRP', -0.151),
  ('RRIRLRPPRLPRPRPRPYLQPRP', -0.0746),
  ('RRIRRRPPRLPRPRPRPYSIPRP', 0.0088),
  ('RRIRHRPPRLPRPRPRPGLWPRP', 0.0565),
  ('RRIRLRPPRLPRPRPRPDDPPRP', 0.00153),
  ('RRIRMRPPRLPRPRPRPFHTPRP', 0.0481),
  ('RRIRHRPPRLPRPRPRPNYFPRP', -0.125),
  ('RRIRSRPPRLPRPRPRPCESPRP', -0.0178),
  ('RRIRFRPPRLPRPRPRPWKIPRP', -0.0171),
  ('RRIRIRPPRLPRPRPRPVPWPRP', 2.5),
  ('RRIRGRPPRLPRPRPRPLEWPRP', 1.03),
  ('RRIRNRPPRLPRPRPRPLHCPRP', -0.168),
  ('RRIRNRPPRLPRPRPRPMDLPRP', 0.00408),
  ('RRIRLRPPRLPRPRPRPDCCPRP', 0.0778),
  ('RRIRDRPPRLPRPRPRPPIVPRP', -0.161),
  ('RRIRIRPPRLPRPRPRPRCQPRP', 0.00087),
  ('RRIRDRPPRLPRPRPRPSTPPRP', -0.238),
  ('RRIRRRPPRLPRPRPRPLPGPRP', 0.59),
  ('RRIRTRPPRLPRPRPRPGCRPRP', 0.235),
  ('RRIRHRPPRLPRPRPRPECHPRP', -0.303),
  ('RRIRSRPPRLPRPRPRPPMYPRP', -0.549),
  ('RRIRHRPPRLPRPRPRPYTVPRP', 0.0229),
  ('RRIRTRPPRLPRPRPRPLSYPRP', -0.155),
  ('RRIRKRPPRLPRPRPRPQVDPRP', 0.288),
  ('RRIRERPPRLPRPRPRPHFMPRP', -0.221),
  ('RRIRLRPPRLPRPRPRPHHRPRP', -0.263),
  ('RRIRARPPRLPRPRPRPQIHPRP', -0.0277),
  ('RRIRIRPPRLPRPRPRPQNPPRP', -0.38),
  ('RRIRSRPPRLPRPRPRPQSPPRP', -0.0599),
  ('RRIRSRPPRLPRPRPRPNFMPRP', -0.43),
  ('RRIRQRPPRLPRPRPRPGTTPRP', 0.155),
  ('RRIRFRPPRLPRPRPRPNYMPRP', -0.254),
  ('RRIRNRPPRLPRPRPRPPMCPRP', 0.154);
